tested on: cholesterol; test: Antilipemic effect: percent total cholesterol inhibition in plasma of rats given an olive oil-cholesterol mixture; type: in vivo, male Wistar rats; conditions: oral 200 mg/kg (asterisked values), plasma 8 hours after dosing, Wistar rat
Quantity Name: Anti-lipemic effect, CS (percent cholesterol inhibition), asterisked (%)
Output spec: scalar in %, unitless text.

Compound	Experimental Value
CCCCCCCC(=O)COS(=O)(=O)c1ccc(OCCCC)cc1 [Compound 56]	42
CCCCC(CC)C(=O)COS(=O)(=O)c1c(C)cc(C)c(C)c1C (centres unmarked) [Compound 100]	42
CCCCCC(=O)COS(=O)(=O)c1ccc(OCCCC)cc1 [Compound 55]	40

Prompt line: What value of Anti-lipemic effect, CS (percent cholesterol inhibition), asterisked has been reported for the following compound? CCCCCCCCC(=O)COS(=O)(=O)c1c(C)cc(C)c(C)c1C [Compound 98]
Response line: 71

Prompt line: # lookup: Anti-lipemic effect, CS (percent cholesterol inhibition), asterisked of CCCCCCCCC(=O)COS(=O)(=O)c1ccc(C)cc1 [Compound 21]
Response line: 43

---

molecular target: chymotripsin (Bos taurus); test: Chymotripsin inhibiting activity; format: biochemical; settings: 0.5 h; compound 1×10^-4 mole, ATEE substrate, pH 8.0, 37° C.; read-out: Percent chymotripsin inhibition
Quantity Name: inhibition at 100 µM

In the examples that follow, each entry is paired with its recorded inhibition at 100 µM.
Compound	inhibition at 100 µM
CCCCCCCCC(=O)COS(=O)(=O)c1c(C)cc(C)cc1C	72%
CCCCCCCCCC(=O)COS(=O)(=O)c1ccc(OC)cc1	45%
CCOc1ccc(S(=O)(=O)OCC(=O)CCC(C)C)cc1	67%
CCCC(CC)C(=O)COS(=O)(=O)c1c(C)cc(C)cc1C (stereo not shown)	8%
O=C(COS(=O)(=O)c1ccccc1)C1CCCCC1	13%
CCCCCC(=O)COS(=O)(=O)c1ccc(C)cc1	77%
C=CCCCCCCCCC(=O)COS(=O)(=O)c1ccc(C)cc1	15%
C=CCCC(=O)COS(=O)(=O)c1c(C)cc(C)cc1C	14%

Prompt line: Which inhibition at 100 µM value is on record for `O=C(CCCCCNC(=O)OCc1ccccc1)COS(=O)(=O)c1ccccc1` ?
Response line: 47%

Prompt line: Reported inhibition at 100 µM, compound CCOc1ccc(S(=O)(=O)OCC(=O)CCC(C)CC)cc1 (stereo not shown) : ____
Response line: 79%

Prompt line: Item `CCCCCCCCCC(=O)COS(=O)(=O)c1ccccc1` has what recorded inhibition at 100 µM?
Response line: 14%

---

assay: Acute toxicity; conditions: rat, in vivo, po
Property: LD50; scope: individual molecules

The following molecules have reported results that may help.
Molecule	Experimental Value
C=CCCCCCCCCC(=O)COS(=O)(=O)c1ccc(C)cc1	> 3000 mg/kg
CCCC(CCC)C(=O)COS(=O)(=O)c1c(C)cc(C)cc1C	> 4000 mg/kg
Cc1cc(C)c(S(=O)(=O)OCC(=O)CCC(C)C)c(C)c1	> 3000 mg/kg
CCCCCCCCCC(=O)COS(=O)(=O)c1ccc(OC)cc1	> 4000 mg/kg
CCCCCCCCCC(=O)COS(=O)(=O)c1c(C)cc(C)cc1C	> 4000 mg/kg

Prompt line: Entry `CCC(CC)C(=O)COS(=O)(=O)c1c(C)cc(C)cc1C` : reported LD50 = ?
Response line: > 3000 mg/kg

Prompt line: May I ask what LD50 has been recorded for `C=CCCC(=O)COS(=O)(=O)c1ccc(OC)cc1` ?
Response line: > 2000 mg/kg

Prompt line: Entry CCCC(C)C(=O)COS(=O)(=O)c1ccc(OCC)cc1 (stereo not drawn) : reported LD50 = ?
Response line: > 4500 mg/kg

Prompt line: Entry `CCCCCCCCCCC(=O)COS(=O)(=O)c1ccc(OCC)cc1` has what LD50?
Response line: > 4000 mg/kg

Prompt line: Quick check: LD50 of CCCCC(CCC)C(=O)COS(=O)(=O)c1ccc(OCC)cc1 (stereo not drawn) ?
Response line: > 3000 mg/kg

Prompt line: What value of LD50 has been recorded for this entry: `CCCCCCC(=O)COS(=O)(=O)c1c(C)cc(C)cc1C`
Response line: > 4000 mg/kg

Prompt line: Reported LD50, molecule `CCCCCCCCCCCC(=O)COS(=O)(=O)c1c(C)cc(C)cc1C` : ____
Response line: > 4000 mg/kg

---

assay: Acute toxicity; conditions: rat, in vivo, po
Entries and their measured LD50 follow.

Compound	Experimental Value
CCCCC(=O)COS(=O)(=O)c1ccc(OCC)cc1	> 2000 mg/kg
CCCCCCCC(=O)COS(=O)(=O)c1ccc(OCCCC)cc1	> 3000 mg/kg
CCCC(=O)COS(=O)(=O)c1cc(Cl)c(Cl)cc1Cl	> 1500 mg/kg
CCCCC(CC)C(=O)COS(=O)(=O)c1c(C)cc(C)c(C)c1C (stereo not shown)	> 4000 mg/kg
CCCCCCCCCCCCCCC(=O)COS(=O)(=O)c1ccc(C)cc1	> 3000 mg/kg
CCCCCCCCCCCC(=O)COS(=O)(=O)c1ccc(OC)cc1	> 4000 mg/kg
CCCCC(CC)C(=O)COS(=O)(=O)c1ccc(OCC)cc1 (stereo not shown)	> 4500 mg/kg
CCCC(=O)COS(=O)(=O)c1cc(Br)ccc1OC	> 2000 mg/kg

Prompt line: Please look up its LD50: `CCCC(=O)COS(=O)(=O)c1c(C(C)C)cc(C(C)C)cc1C(C)C`
Response line: > 3000 mg/kg

Prompt line: What does the data say about its LD50? Entry: `CCCCCC(=O)COS(=O)(=O)c1ccc(C)cc1`
Response line: > 3000 mg/kg

---

assay: Acute toxicity; conditions: rat, in vivo; oral, six-week-old male Wistar rats, suspended in 30% aqueous polyethylene glycol 6000; read-out: LD50
Quantity Name: LD50

// below: answered compounds
Compound	LD50
CCOc1ccc(S(=O)(=O)OCC(=O)CCCCCCC(C)C)cc1	> 4000 mg/kg
CCCC(=O)COS(=O)(=O)c1c(C)cc(C)cc1C	> 3000 mg/kg

Prompt line: GET /values?readout=LD50&item= CCCC(=O)COS(=O)(=O)c1ccccc1C [Compound 29, 2-oxopentyl-o-toluene sulfonate]
Response line: > 1500 mg/kg

Prompt line: Requested field: LD50. Item: CCCCC(=O)COS(=O)(=O)c1ccc(OC)cc1 [Compound 35, 2-oxahexyl-p-methoxybenzene sulfonate]
Response line: > 2000 mg/kg

Prompt line: # get_value(readout='LD50', item= `CCCCCCCCCC(=O)COS(=O)(=O)c1ccccc1` )
Response line: > 3000 mg/kg

---

Documented IC50 across a set of molecules
biological target: esterase; assay: Esterase inhibiting activity; conditions: rat liver microsome esterase, methyl butyrate substrate, pH 8.0, 37° C., 60 minutes; read-out: IC50 for esterases
Reply with just the number (in nM).

Solved entries (count: 2):
Molecule	Unit Text	IC50
CCCC(=O)COS(=O)(=O)CC [Compound 1, 2-oxopentylethane sulfonate]	nM	12000
COC(=O)CCCC(=O)COS(=O)(=O)c1ccccc1	nM	6800

Prompt line: Which IC50 is reported with esterase for this entry: `O=C(COS(=O)(=O)c1ccc(O)cc1)CC1CCCCC1` ?
Response line: 800

Prompt line: // fetch esterase IC50 for `C=CCCCCCCCCC(=O)COS(=O)(=O)c1ccc(C)cc1`
Response line: 230

Prompt line: Test system esterase; read-out IC50; what value for `CCCCCCC(=O)COS(=O)(=O)c1ccc(C)cc1` ?
Response line: 3400

Prompt line: Give esterase IC50 for `CCCCCC(=O)COS(=O)(=O)c1ccccc1`
Response line: 72

Prompt line: Form: Entry = `O=C(CCCCl)COS(=O)(=O)c1ccccc1` | System = esterase | IC50 = ____
Response line: 820

Prompt line: Notebook entry, esterase assay: IC50 of `COCCCC(=O)COS(=O)(=O)c1c(C)cc(C)cc1C` = ?
Response line: 1500

Prompt line: Reported IC50 for esterase, given CCCCCC(C)C(=O)COS(=O)(=O)c1c(C)cc(C)cc1C (stereo not drawn) ?
Response line: 2000

Prompt line: Look up IC50 with esterase for this molecule: CCCC(C)CC(=O)COS(=O)(=O)c1c(C)cc(C)cc1C (stereo not drawn)
Response line: 400

Prompt line: Request - read-out IC50 | tested on esterase | molecule `CC(=O)OCCCC(=O)COS(=O)(=O)c1ccccc1`
Response line: 26000

Prompt line: Request: IC50, test system esterase, entry `CCCCCCCC(=O)COS(=O)(=O)c1ccc(OCC)cc1`
Response line: 590

Prompt line: // lookup IC50 | system=esterase | key= `CCCCCCCCCC(=O)COS(=O)(=O)c1ccccc1`
Response line: 7.6

Prompt line: Form entry - test system: esterase; read-out: IC50; molecule: `Cc1cc(C)c(S(=O)(=O)OCC(=O)C2CCCCC2)c(C)c1`
Response line: 800

Hey, just so you know, these numbers are from patent US4489091A.
